Origin of measurements: PubChem BioAssay AID1159580

Measured normalized growth by item
- Assay remarks: chemical genetic growth profiling, strain panel (AID 1159580);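 also: tested at 20 µM; growth read once vehicle control cultures reached saturation at 30 °C; 1 = growth at the plate median or of vehicle wells; lower values mean less growth of the strain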
- Particulars: S. cerevisiae deletion strains, growth OD, locus YGL167C, strain pmr1, hits give low values
Screen size: about 5,500 compounds; about 2,000 (36%) were called active. Roughly 18% stayed inconclusive and do not appear here. This is one part of the list.
Reported metric: normalized growth

# Molecule, Reported metric, Recorded result
data = [
    ("C=C1C(=O)O[C@@H]2C3O[C@]3(C)CC/C=C(\\C)CC[C@@H]12 (stereo not given in full)", "normalized growth", 0.97),
    ("C[C@H]1COC2=C1C(=O)C(=O)c1c2ccc2c1CCCC2(C)C", "normalized growth", 0.936),
    ("CC[C@H](C)C(=O)O[C@H]1C[C@@H](C)C=C2C=C[C@H](C)[C@H](CC[C@@H]3C[C@@H](O)CC(=O)O3)[C@H]21", "normalized growth", 0.998),
    ("Clc1cccc(Cl)c1NC1=NCCN1", "normalized growth", 0.991),
    ("CC[C@H](C)C(=O)O[C@H]1CCC=C2C=C[C@H](C)C(CCC3C[C@@H](O)CC(=O)O3)[C@H]21 (stereo not given in full)", "normalized growth", 0.996),
    ("Cc1cccc(C)c1NC1=NCCCS1", "normalized growth", 1.01),
    ("CC(C)NC[C@H](O)COc1cccc2ccccc12", "normalized growth", 0.982),
    ("CO/N=C(\\C(=O)NC1C(=O)N2C(C(=O)O)=C(COC(N)=O)CSC12)c1ccco1 (stereo not given)", "normalized growth", 0.96),
    ("CO/N=C(\\C(=O)N[C@@H]1C(=O)N2C(C(=O)O)=C(COC(C)=O)CS[C@H]12)c1csc(N)n1", "normalized growth", 1.01),
    ("CCC(C)(C)C(=O)O[C@H]1C[C@@H](C)C=C2C=C[C@H](C)[C@H](CC[C@@H]3C[C@@H](O)CC(=O)O3)[C@H]21", "normalized growth", 1.01),
    ("CC1(C)NC(=O)N(c2ccc([N+](=O)[O-])c(C(F)(F)F)c2)C1=O", "normalized growth", 0.983),
    ("CCOC(=O)[C@H](CCc1ccccc1)N[C@@H](C)C(=O)N1[C@H](C(=O)O)C[C@@H]2CCC[C@@H]21", "normalized growth", 0.979),
    ("CCC(C)C(=O)O[C@H]1C[C@H](O)C=C2C=C[C@H](C)[C@H](CC[C@@H](O)C[C@@H](O)CC(=O)O)C21 (stereo not given in full)", "normalized growth", 1),
    ("C=C1C(=O)O[C@@H]2C[C@@]3(C)CCC[C@H](C)C3=C[C@H]12", "normalized growth", 0.848),
    ("CC(C)C(=O)Nc1ccc([N+](=O)[O-])c(C(F)(F)F)c1", "normalized growth", 1.03),
    ("O=C1[C@H](CCC(O)c2ccc(F)cc2)[C@@H](c2ccc(O)cc2)N1c1ccc(F)cc1 (stereo not given in full)", "normalized growth", 0.965),
    ("CO/N=C(\\C(=O)NC1C(=O)N2C(C(=O)OC(C)OC(C)=O)=C(COC(N)=O)CSC12)c1ccco1 (stereo not given)", "normalized growth", 0.989),
    ("COc1ccc(CCN2CCC(Nc3nc4ccccc4n3Cc3ccc(F)cc3)CC2)cc1", "normalized growth", 1),
    ("O=C1NC(=O)C(=O)C(=O)N1", "normalized growth", 0.987),
    ("Nc1nc2ncc(=O)[nH]c2c(=O)[nH]1", "normalized growth", 0.968),
]
